# TESTED_TARGET: TYK2 JH2 domain (Homo sapiens (Human))
# Sequence (P29597 589-875): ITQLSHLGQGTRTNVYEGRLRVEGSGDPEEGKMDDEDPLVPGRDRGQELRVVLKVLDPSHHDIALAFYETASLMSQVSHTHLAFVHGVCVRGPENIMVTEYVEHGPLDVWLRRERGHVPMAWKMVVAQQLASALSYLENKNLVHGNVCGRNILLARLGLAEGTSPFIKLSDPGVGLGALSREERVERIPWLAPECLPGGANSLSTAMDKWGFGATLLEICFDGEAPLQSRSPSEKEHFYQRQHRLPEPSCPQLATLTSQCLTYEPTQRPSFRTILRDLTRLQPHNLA
# TEST_METHOD_NOTES: TYK2 JH2 NanoBRET assay
# Assay type: binding
# SETTINGS: HEK293T cells, Table 19, read-out: IC50 (nM), TYK2 activity
Assignment: determine reported IC50 for the given molecules.

# IC50 of COc1c(Nc2cc(NC(C)=O)ncc2C(C)=O)cccc1-c1ncn(C)n1 = 5 to 50 nM

# IC50 of COc1c(Nc2cc(Nc3ccn(C)n3)ncc2C(C)=O)cccc1-c1ncn(C)n1 = < 5 nM

# IC50 of COc1c(Nc2cc(NC(=O)[C@@H]3C[C@@H]3F)ncc2C(C)=O)cccc1-c1ncn(C)n1 = < 5 nM

# IC50 of CCOc1ccc(Nc2cc(Nc3cccc(-c4ncn(C)n4)c3OC)c(C(C)=O)cn2)nn1 = < 5 nM

# IC50 of COc1c(Nc2cc(Nc3ccc(N4CCOCC4)cn3)ncc2C(C)=O)cccc1-c1ncn(C)n1 = < 5 nM

* * *

// values below are IC50; system is human JAK3 (Homo sapiens (Human))
Sequence (P52333 whole entry): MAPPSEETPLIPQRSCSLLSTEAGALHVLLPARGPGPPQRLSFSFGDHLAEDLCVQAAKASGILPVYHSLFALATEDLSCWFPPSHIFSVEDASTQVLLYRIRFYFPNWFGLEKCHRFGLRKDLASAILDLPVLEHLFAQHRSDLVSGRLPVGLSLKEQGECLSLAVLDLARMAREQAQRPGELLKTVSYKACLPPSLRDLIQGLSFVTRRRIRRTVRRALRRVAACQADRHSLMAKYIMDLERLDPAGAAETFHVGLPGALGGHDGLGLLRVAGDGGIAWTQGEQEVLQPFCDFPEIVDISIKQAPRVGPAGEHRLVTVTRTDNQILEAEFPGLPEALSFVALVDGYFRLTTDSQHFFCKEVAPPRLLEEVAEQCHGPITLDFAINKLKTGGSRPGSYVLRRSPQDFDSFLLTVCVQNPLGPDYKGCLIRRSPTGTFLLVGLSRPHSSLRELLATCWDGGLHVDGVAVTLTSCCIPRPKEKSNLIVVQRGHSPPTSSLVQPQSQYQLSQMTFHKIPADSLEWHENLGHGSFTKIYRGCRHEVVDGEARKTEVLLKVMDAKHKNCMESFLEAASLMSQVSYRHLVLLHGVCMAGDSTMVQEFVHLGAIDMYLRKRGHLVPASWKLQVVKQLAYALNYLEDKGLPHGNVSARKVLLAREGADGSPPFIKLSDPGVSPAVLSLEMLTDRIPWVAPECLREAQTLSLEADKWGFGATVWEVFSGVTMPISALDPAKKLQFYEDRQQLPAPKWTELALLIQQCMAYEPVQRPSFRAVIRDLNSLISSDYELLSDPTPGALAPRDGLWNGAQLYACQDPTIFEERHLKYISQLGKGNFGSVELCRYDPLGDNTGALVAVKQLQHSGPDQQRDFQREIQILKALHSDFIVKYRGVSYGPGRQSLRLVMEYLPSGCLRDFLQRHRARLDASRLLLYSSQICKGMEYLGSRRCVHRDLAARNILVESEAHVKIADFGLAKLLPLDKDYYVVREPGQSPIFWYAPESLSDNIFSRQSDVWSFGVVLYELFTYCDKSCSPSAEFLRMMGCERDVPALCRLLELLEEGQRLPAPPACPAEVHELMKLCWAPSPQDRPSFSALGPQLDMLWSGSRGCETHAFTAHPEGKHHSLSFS

# IC50 of CCC(=O)c1cnc(Nc2ccc(CN)nn2)cc1Nc1cccc(-c2ncn(C)n2)c1OC = ≥ 500 nM

# IC50 of CCC(=O)c1cnc(Nc2ccc(OC3CCN(C)CC3)cn2)cc1Nc1cccc(-c2ncn(C)n2)c1OC [Compound 18Y] = 50 to 500 nM

# IC50 of CCC(=O)c1cnc(Nc2cc(CN3CCCC3)sn2)cc1Nc1cccc(-c2ncn(C)n2)c1OC [Compound 21I] = 50 to 500 nM

# IC50 of CCC(=O)c1cnc(Nc2ccc(CN(C)C3CC(F)(F)C3)cn2)cc1Nc1cccc(-c2ncn(C)n2)c1OC = ≥ 500 nM

# IC50 of CCC(=O)c1cnc(Nc2cnc(CN(C)CC(F)F)cn2)cc1Nc1cccc(-c2ncn(C)n2)c1OC = ≥ 500 nM

# IC50 of CCC(=O)c1cnc(Nc2ccc(-c3cn(C)cn3)cn2)cc1Nc1cccc(-c2ncn(C)n2)c1OC [Compound 15B] = 50 to 500 nM

# IC50 of CCC(=O)c1cnc(Nc2cc(C(=O)NC)ncn2)cc1Nc1cccc(-c2ncn(C)n2)c1OC = ≥ 500 nM

# IC50 of CCC(=O)c1cnc(Nc2cc(-c3cnn(C)c3)ccn2)cc1Nc1cccc(-c2ncn(C)n2)c1OC [Compound 15G] = ≥ 500 nM

# IC50 of CCC(=O)c1cnc(Nc2ccc(OCCCN3CCCC3)nn2)cc1Nc1cccc(-c2ncn(C)n2)c1OC [Compound 18DD] = ≥ 500 nM

# IC50 of CCC(=O)c1cnc(Nc2ccc(-c3cnn(C)c3)cn2)cc1Nc1cccc(-c2ncn(C)n2)c1OC [Compound 15D] = ≥ 500 nM

# IC50 of CCC(=O)c1cnc(Nc2cccc(CN3CCCCC3)n2)cc1Nc1cccc(-c2ncn(C)n2)c1OC = ≥ 500 nM

# IC50 of CCC(=O)c1cnc(Nc2ccn(CCN3CCCC3)n2)cc1Nc1cccc(-c2ncn(C)n2)c1OC [Compound 21C] = ≥ 500 nM

# IC50 of CCC(=O)c1cnc(Nc2ccn(CC3CCOC3)n2)cc1Nc1cccc(-c2ncn(C)n2)c1OC (centres unmarked) [Compound 21T] = ≥ 500 nM

# IC50 of CCC(=O)c1cnc(Nc2ccc(-n3nc(C)ccc3=O)cn2)cc1Nc1cccc(-c2ncn(C)n2)c1OC [Compound 15Z] = ≥ 500 nM

# IC50 of CCC(=O)c1cnc(Nc2cc(C(=O)N(C)C)ncn2)cc1Nc1cccc(-c2ncn(C)n2)c1OC = ≥ 500 nM

# IC50 of CCC(=O)c1cnc(Nc2ccc(S(=O)(=O)NC)cn2)cc1Nc1cccc(-c2ncn(C)n2)c1OC [Compound 13C] = ≥ 500 nM

# IC50 of CCC(=O)c1cnc(NC(=O)[C@@H]2C[C@H]2C(N)=O)cc1Nc1cccc(-c2ncn(C)n2)c1OC [Compound 22E] = ≥ 500 nM

# IC50 of CCC(=O)c1cnc(Nc2ccc(S(C)(=O)=O)cn2)cc1Nc1cccc(C(C)O)c1OC (centres unmarked) [Compound 13Q] = ≥ 500 nM

# IC50 of CCC(=O)c1cnc(Nc2ccc(O[C@H]3CN(C)C[C@@H]3O)cn2)cc1Nc1cccc(-c2ncn(C)n2)c1OC [Compound 18S] = 50 to 500 nM

# IC50 of CCC(=O)c1cnc(Nc2ccc(-c3cn(C)cn3)cn2)cc1Nc1nccc(-c2ncn(C)n2)c1OC [Compound 15J] = ≥ 500 nM

# IC50 of CCC(=O)c1cnc(Nc2ccc(OC[C@@H](O)CO)cn2)cc1Nc1cccc(-c2ncn(C)n2)c1OC [Compound 18F] = 50 to 500 nM

# IC50 of CCC(=O)c1cnc(Nc2cnc(O[C@@H]3CCN(CC(F)F)C3)cn2)cc1Nc1cccc(-c2ncn(C)n2)c1OC = ≥ 500 nM

# IC50 of [2H]C([2H])([2H])N(Cc1ccc(Nc2cc(Nc3cccc(-c4ncn(C)n4)c3OC)c(C(=O)CC)cn2)nc1)C([2H])([2H])[2H] = ≥ 500 nM

# IC50 of CCC(=O)c1cnc(Nc2cc(C(=O)N(C)C)ccn2)cc1Nc1cccc(-c2ncn(C)n2)c1OC = ≥ 500 nM

# IC50 of CCC(=O)c1cnc(Nc2ccc([C@@H](C)N3CC[C@@H](O)C3)cn2)cc1Nc1cccc(-c2ncn(C)n2)c1OC = 50 to 500 nM

# IC50 of CCC(=O)c1cnc(Nc2cc(OCCO)n(C)n2)cc1Nc1cccc(-c2ncn(C)n2)c1OC [Compound 21AA] = 50 to 500 nM

# IC50 of CCC(=O)c1cnc(Nc2cc(C(=O)O)ccn2)cc1Nc1cccc(-c2ncn(C)n2)c1OC = ≥ 500 nM

# IC50 of CCC(=O)c1cnc(Nc2ccc(S(=O)(=O)N(C)C)cn2)cc1Nc1cccc(-c2ncn(C)n2)c1OC [Compound 13D] = ≥ 500 nM

# IC50 of CCC(=O)c1cnc(Nc2cc(C(N)=O)ncn2)cc1Nc1cccc(-c2ncn(C)n2)c1OC = ≥ 500 nM
